Test system: A2780 Human Carcinoma Cells
ASSAY_OVERVIEW: Glucose displacement assay (ATP measurement, CellTiter-Glo)
Type: cell-based
DETAILS: ATP measurement in A2780 cells, 0.5 μM rotenone, 10 mM glucose, read-out: IC50 [μM] at 10 mM glucose
Procedure: 2. Glucose Displacement Assay (ATP Measurement) 30,000 A2780 Human Carcinoma Cells are seeded per well in a Greiner 96-well plate. Cells are expanded and cultured in RPMI 1640 medium+GlutaMAX® with 10% FCS and 11 mM glucose, at 37° C. with 5% CO2. After 44 h, culture media is changed and washed once with PBS to starvation media consisting of RPMI 1640 medium with 1% FCS without glucose for 2 hours. […]
PARAMETER_MEASURED: IC50 (µM)

COMPOUND	PARAMETER_MEASURED	OBSERVED_MEASUREMENT
CO[C@H]1O[C@H](CO)[C@@H](O)[C@H](O)[C@H]1NC(=O)c1cc(Cl)c(OCc2cccc(CNC(=O)OC(C)(C)C)c2)c(Cl)c1C [Example 439]	IC50	11.5
COc1cc(OCc2cccc(CNC(=O)OC(C)(C)C)c2)c(Cl)cc1C(=O)O[C@H]1[C@@H](OC)O[C@H](CO)[C@@H](O)[C@@H]1O [Example 361]	IC50	8.11
